- System: KM-20L2
- ASSAY TEXT: NCI tumour cell line growth inhibition, 48 h
Activity calls are given as the source filed them. Cut-off read from the data, not from the text of the source: active = GI50 up to about 1.1 µM and inactive = higher.
ATTRIBUTE MEASURED: GI50

INSERT INTO assay_data (compound, attribute_measured, result) VALUES
  ('Nc1nc(-c2ccccc2)cc(-c2cc(Cl)ccc2O)n1', 'GI50', '> 100 µM (inactive)'),
  ('COc1ccc(C(=O)Nc2ccn(CCOC(=O)c3ccc(OC)cc3)c(=O)n2)cc1', 'GI50', '> 100 µM (inactive)'),
  ('COc1ccc(CCCN2c3ccccc3Sc3ccccc32)cc1', 'GI50', '53.8 µM (inactive)'),
  ('CCOC(C)OC1CC(n2cc(C)c(=O)[nH]c2=O)OC1CO (stereo unspecified)', 'GI50', '> 100 µM (inactive)'),
  ('CCNC(=O)/C=C/CCC#Cc1ccc(-c2ccc(-c3cccs3)s2)s1', 'GI50', '> 100 µM (inactive)'),
  ('CC(C)CN(CC(C)C)C(=O)C1CCCC[C@@H]1C(=O)O (stereo partly specified)', 'GI50', '> 100 µM (inactive)'),
  ('O=C(O)C1CCCCN1C(=O)c1ccccc1 (stereo unspecified)', 'GI50', '> 100 µM (inactive)'),
  ('COc1ccc([C@H]2[C@@H]3CCc4ccccc4C3=NN2C(N)=S)cc1OC', 'GI50', '57.7 µM (inactive)'),
  ('Cc1ccccc1OCC(COC(=O)Nc1ccccc1)OC(=O)Nc1ccccc1 (stereo unspecified)', 'GI50', '52.2 µM (inactive)'),
  ('CN(C)CCNC(=O)c1cccc2c1C(=O)c1ccccc1C2=O', 'GI50', '28 µM (inactive)'),
  ('CCOC(=O)CCc1c(C)c2c(OC(C)=O)cc(OC(C)=O)cc2oc1=O', 'GI50', '> 100 µM (inactive)');

====

- System: SW-620
- ASSAY TEXT: NCI tumour cell line growth inhibition, 48 h
The source made the active and inactive calls. Rule as the data show it: active = GI50 up to about 1.1 µM and inactive = higher.
Outcome codes: t (active), f (inactive)

INSERT INTO assay_data (compound, label_value) VALUES
  ('N#CC(C(=O)/C(=N/Nc1nc(S)nn1N)C(C#N)c1ccccc1)c1ccccc1 (stereo not given)', 'f'),
  ('CC12CCC(C(Br)(Br)C1=O)C2(C)C (stereo not given)', 't'),
  ('Nc1nc2ncn(CC(O)COC(=O)c3ccccc3)c2c(=O)[nH]1 (stereo not given)', 'f'),
  ('O=C1CC(n2cccc2)c2cc(Br)sc21 (stereo not given)', 'f'),
  ('CC(C)(C)OC(=O)N1C(=O)OC[C@@H]2C=C[C@@H]21', 'f'),
  ('COc1ccc(C(OCC2OC(n3cc(C)c(=O)[nH]c3=O)CC2n2cc(Cn3cc(Cl)c(=O)[nH]c3=O)nn2)(c2ccccc2)c2ccccc2)cc1 (stereo not given)', 'f'),
  ('CN(C)/C=N/[C@@H](C(=O)O)c1ccccc1', 'f'),
  ('COc1cccc2nc3cc(C)c(C)cc3nc12', 'f'),
  ('CO/C(N)=C(C#N)/N=C/c1ccco1', 'f'),
  ('O=S(=O)(SC1=NCCN1)c1ccc2ccccc2c1', 'f'),
  ('C=CCOc1ccccc1/N=N/C(C#N)=N\Nc1ccccc1OCC=C', 'f'),
  ('CCCn1c2c(c3ccccc3c1=O)C(=O)c1ccccc1-2', 'f'),
  ('COC(=O)c1cc2c3ccccc3n(C(C)=O)c2cn1', 'f'),
  ('CSc1n/c(=N\c2ccccc2)sn1-c1ccccc1', 'f'),
  ('N#CC(N)(C(=O)C(=O)NCCCNC(=O)C(=O)C(N)(C#N)c1ccc(Cl)cc1)c1ccc(Cl)cc1 (stereo not given)', 'f'),
  ('COc1cc2c(cc1OC)[C@@H](Nc1ccc(F)cc1)C1COC(=O)[C@@H]1C2c1cc(OC)c(O)c(OC)c1 (stereo not given in full)', 't'),
  ('CC(C)NC(=O)OCc1c(COC(=O)NC(C)C)c(-c2cc[n+](COC(=O)C3CCCCC3)cc2)n2c1CCC2', 'f'),
  ('CCCCCCN1C(=O)CC(=O)N(CCCCCC)S1(=O)=O', 'f'),
  ('CC(=O)OCC1OC(N2C(=O)/C(=N\NC(N)=S)c3ccc([N+](=O)[O-])cc32)C(OC(C)=O)C1OC(C)=O (stereo not given)', 'f'),
  ('C1CCN(c2nsc(N3CCCCC3)n2)CC1', 'f'),
  ('COc1cc2cc[n+](C)c(Cc3ccccc3)c2cc1OC', 'f'),
  ('COc1ccc2c(c1)CN1C(=N2)CSC1c1cc([N+](=O)[O-])ccc1Cl (stereo not given)', 'f'),
  ('CC1CC2CCCC(=O)C2=C(O)O1 (stereo not given)', 'f'),
  ('O=C(O)C1CCc2ccc3ccccc3c2C1c1cccc2ccccc12 (stereo not given)', 'f'),
  ('CC(=O)Nc1oc(C)nc1C#N', 'f'),
  ('COc1c(O)ccc(C2=Cc3ccc(O)cc3OC2)c1OC', 'f'),
  ('COc1cc([C@@H]2c3cc4c(c(O[C@@H]5O[C@H]6CO[C@@H](C)O[C@H]6[C@H](O)[C@@H]5O)c3C[C@H]3COC(=O)[C@@H]32)OCO4)cc(OC)c1O', 'f'),
  ('COc1ccc([C@H]2[C@@H]3CCc4ccccc4C3=NN2C(N)=S)cc1OC', 'f'),
  ('CC(=O)Nc1c(C)cc2c(nc3n2CCC3O)c1[N+](=O)[O-] (stereo not given)', 'f'),
  ('CN1CCN(CCCBr)CC1', 'f'),
  ('COC(=O)CCC1CCc2c(OC)ccc(O)c2C1=O (stereo not given)', 'f'),
  ('CCOCC(=O)N[C@H]1CCc2cc(OC)c(OC)c(OC)c2-c2ccc(OC)c(=O)cc21', 't'),
  ('Cc1[nH]c(-c2ccccc2)c(O)c1C(=O)OC12CC3CC(CC(C3)C1)C2', 'f'),
  ('CCOC(=O)C(=O)N1C(C)=C(C(=O)OCC)CC(C(=O)OCC)=C1C', 'f'),
  ('COc1c(OC)c(O)c2c(=O)c(OC)c(-c3ccc4c(c3)OCO4)oc2c1O', 'f'),
  ('O=C(O)c1nn(-c2ccccc2-c2nnc(O)nc2O)c(=O)[nH]c1=O', 'f'),
  ('O/N=C\c1c(O)ccc2ccccc12', 'f'),
  ('Clc1ccc2c(c1)[nH]c1c2nc2sccn21', 'f'),
  ('Nc1c2c(nc3ccccc13)CCCCCC2', 'f'),
  ('C[P+]1(Cc2ccccc2)CCCC1', 'f'),
  ('N#Cc1cc2c(cc1Cl)Sc1nccn1S2(=O)=O', 'f'),
  ('O=C(O)CCSC(=S)Nc1cccc(F)c1', 'f'),
  ('Cc1cn(C2CC3C(COCN3O)O2)c(=O)[nH]c1=O (stereo not given)', 'f'),
  ('O=C(Cn1c2ccc(Br)cc2c2nc3ccccc3nc21)N/N=C/c1ccccc1', 'f'),
  ('CN(C)C(=O)Nc1c([N+](=O)[O-])cc(C(F)(F)F)cc1[N+](=O)[O-]', 'f');

====

- Test system: SK-MEL-5
- ASSAY TEXT: NCI tumour cell line growth inhibition, 48 h
The source made the active and inactive calls. Rule as the data show it: active = GI50 up to about 1.1 µM and inactive = higher.
Outcomes: T for active, F for inactive

INSERT INTO results (molecule, target_or_test_system, label_value) VALUES
  ('COc1cc(OC)c(OC)cc1/C=C/c1cnnc2ccccc12', 'SK-MEL-5', 'F'),
  ('CC(NC1=NCCO1)c1cccc([N+](=O)[O-])c1 (stereo not drawn)', 'SK-MEL-5', 'F'),
  ('CCOC(=O)CCC(NC(=O)c1ccc(Oc2nc3ccccc3nc2C(=O)OCC)cc1)C(=O)OCC (stereo not drawn)', 'SK-MEL-5', 'F'),
  ('CC/C(CC(=O)CCC(=O)Nc1c(C)cccc1C)=N\NC(=O)NN', 'SK-MEL-5', 'F'),
  ('COc1ccc2c(c1)c(=O)c1c(NCCCN(C)C)ccc3ncn2c31', 'SK-MEL-5', 'F'),
  ('CO[C@H]1[C@@H](O)[C@@H](C)O[C@@H](O[C@H]2CC[C@@]3(C)[C@H](CC[C@@H]4[C@@H]3CC[C@]3(C)[C@@H](C5=CC(=O)OC5)[C@@H](OC(C)=O)C[C@]43O)C2)[C@@H]1O [NERITALOSIDE]', 'SK-MEL-5', 'T'),
  ('C[N+](C)(C)CCCSc1nc2ccccc2[nH]1', 'SK-MEL-5', 'F'),
  ('CC(C)(C)OC(=O)N1C(=O)OC[C@@H]2C=C[C@@H]21', 'SK-MEL-5', 'F'),
  ('CCN(CC)CCOC(=O)c1ccc(N)cc1.CCOC(=O)Nc1ccc(S(=O)(=O)OC)cc1.CCOC(=O)Nc1ccc(S(=O)(=O)OC)cc1.Nc1ccc(C(=O)O)c(O)c1', 'SK-MEL-5', 'F'),
  ('CN(C)C(=O)Nc1c([N+](=O)[O-])cc(C(F)(F)F)cc1[N+](=O)[O-]', 'SK-MEL-5', 'F'),
  ('CC1(C)NC2C(=O)c3c([nH]c4ccccc34)[C@]3(C)CCC1CC23 (stereo partly drawn)', 'SK-MEL-5', 'F'),
  ('COc1ccc(C(=O)Nc2ccn(CCOC(=O)c3ccc(OC)cc3)c(=O)n2)cc1', 'SK-MEL-5', 'F'),
  ('COc1cc2cc[n+](C)c(Cc3ccccc3)c2cc1OC', 'SK-MEL-5', 'F'),
  ('Cc1nc(Cl)nc(Cl)c1C', 'SK-MEL-5', 'F'),
  ('COc1cc(C(C)O)c(S(=O)(=O)CC(C)O)nn1 (stereo not drawn)', 'SK-MEL-5', 'F'),
  ('CN(C)c1nc(NC23CC4CC(CC(C4)C2)C3)nc(N(C)C)n1', 'SK-MEL-5', 'F'),
  ('O=C(/C=C/c1cccc([N+](=O)[O-])c1)c1ccc([N+](=O)[O-])cc1', 'SK-MEL-5', 'F'),
  ('COc1cc(-c2c3c(cc4c2OCO4)[C@@H](Nc2ccc(-c4ccc(-c5ccc(N[C@@H]6c7cc8c(cc7C(c7cc(OC)c(O)c(OC)c7)[C@H]7C(=O)OC[C@H]67)OCO8)cc5)cc4)cc2)[C@H]2COC(=O)[C@@H]2C3)cc(OC)c1O (stereo partly drawn)', 'SK-MEL-5', 'F');
